- Tested on: NCI-H522 lung
- EXPERIMENT_DESCRIPTION: NCI tumour cell line growth inhibition, 48 h; in the data active means GI50 below about 0.43 µM; inactive means the rest
Outcomes: class 1 (active), class 0 (inactive)

INSERT INTO results (compound, category) VALUES
  ('CCOc1ccc2c(c1)/C(=C\C=C\C1CC(C)C3CC(OCC)CCC3N1CC)CC(C)N2CC (stereo not given)', 'class 0'),
  ('O=C1NC(=NCCc2ccccc2Cl)S/C1=C\c1ccc2ncccc2c1', 'class 0'),
  ('CN1CCN(c2ccc3nc(-c4ccc(OCCCN5C(=O)c6cccc7cccc(c67)C5=O)cc4)[nH]c3c2)CC1', 'class 0'),
  ('COc1ccc(-n2c(N)c(C(=O)NCCN3CCOCC3)c3nc4ccccc4nc32)cc1OC', 'class 0'),
  ('COC(=O)c1c(-c2ccccc2)csc1NC(=O)c1c(-c2ccccc2)noc1C', 'class 0'),
  ('C[n+]1c2ccccc2c(NC2CCNCC2)c2[nH]c3ccccc3c21', 'class 1'),
  ('COc1ccc(C(=O)Nc2cccc(C3CC(=O)c4c(cc(OC)c(OC)c4OC)O3)c2)cc1 (stereo not given)', 'class 1'),
  ('COc1ccc(C2CC(c3cc(OC)c(OC)c(OC)c3)=NN2)cc1 (stereo not given)', 'class 0'),
  ('Cn1cccc1-c1cc(-c2ccc(Br)cc2)nc(N)c1C#N', 'class 0'),
  ('CCN1C(=O)N(c2c(F)c(OC)cc(OC)c2F)Cc2cnc3[nH]c(CN4CCOCC4)cc3c21', 'class 0');
